- system_under_test: PARP1 (Homo sapiens)
- Construct: purchased Trevigen
- Sequence (P09874 whole entry): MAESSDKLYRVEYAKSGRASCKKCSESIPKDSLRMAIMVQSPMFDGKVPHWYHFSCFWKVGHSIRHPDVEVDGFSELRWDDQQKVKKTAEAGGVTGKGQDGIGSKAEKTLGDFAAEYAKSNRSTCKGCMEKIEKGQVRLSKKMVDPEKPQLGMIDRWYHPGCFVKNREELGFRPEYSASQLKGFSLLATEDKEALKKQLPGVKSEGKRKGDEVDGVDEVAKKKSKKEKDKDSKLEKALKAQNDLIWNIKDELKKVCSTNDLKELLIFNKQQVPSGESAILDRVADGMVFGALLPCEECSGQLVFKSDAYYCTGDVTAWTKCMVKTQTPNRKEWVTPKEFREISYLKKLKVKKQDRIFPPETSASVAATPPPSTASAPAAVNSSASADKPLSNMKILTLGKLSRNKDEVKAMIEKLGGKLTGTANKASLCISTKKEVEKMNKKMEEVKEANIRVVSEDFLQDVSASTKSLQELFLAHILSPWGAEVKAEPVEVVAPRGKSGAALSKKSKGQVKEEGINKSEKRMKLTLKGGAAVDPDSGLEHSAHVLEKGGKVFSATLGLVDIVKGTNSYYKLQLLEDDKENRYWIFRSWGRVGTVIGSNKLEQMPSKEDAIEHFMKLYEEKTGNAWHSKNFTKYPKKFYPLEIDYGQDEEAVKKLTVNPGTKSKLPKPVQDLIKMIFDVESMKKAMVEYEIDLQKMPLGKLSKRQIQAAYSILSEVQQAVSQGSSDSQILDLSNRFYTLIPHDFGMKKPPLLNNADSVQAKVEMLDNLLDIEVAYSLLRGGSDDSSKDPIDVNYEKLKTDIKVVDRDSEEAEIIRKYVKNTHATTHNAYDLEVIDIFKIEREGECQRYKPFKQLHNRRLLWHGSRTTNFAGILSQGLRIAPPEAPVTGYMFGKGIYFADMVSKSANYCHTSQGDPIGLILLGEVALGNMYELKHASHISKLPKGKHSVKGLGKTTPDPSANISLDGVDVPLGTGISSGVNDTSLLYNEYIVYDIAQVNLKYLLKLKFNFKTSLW
- experiment_summary: Determination of PARP1 inhibitory activity (Universal PARP colorimetric assay kit, Trevigen)
- Type: biochemical
- details: PARP1 enzyme inhibition rate; footnote: inhibition rate below 500 nM unless indicating otherwise
Parameter Inhibition (%): see the listing below.
Unit % implied. Number only.

CCN(CC)CC1=CN2C(=Nc3cccc4c(=O)[nH]nc2c34)C=C1 [Compound A3] | 84.77
CC1=CN2C(=Nc3cccc4c(=O)[nH]nc2c34)C=C1 [Compound 9] | 87.58
O=c1[nH]nc2c3c(cccc13)N=C1C=CC(CN3CCCC3)=CN12 [Compound A4] | 84.77

So for CN(C)C1CCN(CC2=CN3C(=Nc4cccc5c(=O)[nH]nc3c45)C=C2)CC1 [Compound A9] , the logged Inhibition (%) turned out to be 82.15
